inhibition by entry:
Biological target: UniProtKB Q8IXJ6
Sequence (Q8IXJ6 whole entry): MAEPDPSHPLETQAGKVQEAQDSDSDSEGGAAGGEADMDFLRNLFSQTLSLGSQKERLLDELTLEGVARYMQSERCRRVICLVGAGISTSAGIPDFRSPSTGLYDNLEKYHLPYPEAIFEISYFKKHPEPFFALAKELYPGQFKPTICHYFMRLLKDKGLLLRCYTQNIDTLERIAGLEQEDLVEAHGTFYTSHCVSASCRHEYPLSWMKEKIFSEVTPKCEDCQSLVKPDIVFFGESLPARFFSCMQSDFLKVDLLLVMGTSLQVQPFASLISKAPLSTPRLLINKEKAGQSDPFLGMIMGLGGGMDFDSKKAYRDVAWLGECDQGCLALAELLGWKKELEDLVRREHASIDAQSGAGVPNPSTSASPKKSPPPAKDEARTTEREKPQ
Experiment: Inhibition of recombinant GST-tagged human SIRT2 expressed in Escherichia coli at 200 uM using FLUOR DE LYS SIRT2 as substrate preincubated with substrate for 5 mins followed by enzyme addition and measured after 1 hr in presence of NAD+ by fluorescence based assay relative to control

Problem: Data request, read-out inhibition, for `O=C1c2ccc(Br)cc2S(=O)(=O)N1CCc1cccc([N+](=O)[O-])c1`
Result: 6.2%

Problem: Entry CCCCCC1Nc2c(Br)cc(Br)cc2S(=O)(=O)N1 (stereo not drawn) please
Result: 32%

Problem: Entry `O=C1CCC(=O)N1CCN1C(=O)c2ccc(Br)cc2S1(=O)=O` please
Result: 13%
